- ASSAY_INFO: Cell viability of non-tumor healthy fibroblasts HMF
- SETTINGS: human
QUANTITY_MEASURED: viability at 850 ng/ml
Could you write the number and then its unit?

Quick note, viability at 850 ng/ml for O=P1(N(CCCl)CCCl)NCCCO1 (stereo not shown) [Cyclophosphamide, cyclophosphamide] landed at 54%
